Hello, the source for this data is a melting point compilation (Tetko et al.; mined from patent text by program, amines drawn as free bases though some values may be those of a salt), in case you need it.

melting point reference

Example cases with answers are listed next.
# COMPOUND, melting point
records = [
    ("CC(=O)C(=CNc1cc(Cl)cc(C(=O)O)c1Cl)C(C)=O", "244 to 246 °C"),
    ("COc1cc2c(c3c1OC(C)(C)C3)C(c1cccc(NC(=O)c3ccc(CP(=O)(O)O)cc3)c1)=NC(C)(C)C2", "237 to 241 °C"),
    ("Cc1nccn1CCN1CCC(Nc2nc3ccccc3n2Cc2ccc(F)cc2)CC1", "170 °C"),
    ("Nc1c(OCCNCc2ccccc2)cccc1[N+](=O)[O-]", "33 to 60 °C"),
]

Query: Which melting point reading was recorded for the compound CC1CCN(c2cc3nc(C(C)(C)C)sc3cc2NC(=S)N2CCN(C)CC2)CC1 ?
Response: 192 to 195 °C

Query: Which melting point reading was recorded for the compound Cc1ccc(C(=O)Nc2cccc(C(F)(F)F)c2)cc1-c1ccc2ccncc2c1 ?
Response: 157 to 159 °C

Query: Which melting point reading was recorded for the compound COc1ccc2c(C(=O)NCCCCC(=O)O)cc3cc4c(cc3c2c1)OCO4 ?
Response: 137 to 138 °C

Query: Which melting point reading was recorded for the compound COC1=C(OC)C(=O)C2=C(CC(CCCCCCCCN3C(=O)c4ccccc4C3=O)C2)C1=O ?
Response: 91 to 93 °C

Query: Which melting point reading was recorded for the compound Cc1cccc(C2C(C#N)=C(C3CC3)Nc3n[nH]cc32)c1[N+](=O)[O-] (centres undefined) ?
Response: 265 °C

----------
PROPERTY_MEASURED: melting point

Example cases with answers are listed next.
# MOLECULE, ENDPOINT_VALUE
data = [
    ("CCOC(=O)Nc1ccc(OC)nc1", "76 °C"),
    ("CCCC1=C(C#N)C(c2cccc(C#N)c2Br)c2c[nH]nc2N1C (stereo not given)", "218 to 220 °C"),
    ("C=C(C)COc1ccc(Cl)cc1CN(CC)c1ccc(C(=O)O)nn1", "130 to 131 °C"),
    ("CS(=O)(=O)c1csc(C(=O)C2C(=O)N(C(N)=O)c3ccc(Cl)cc32)c1 (stereo not given)", "228 to 230 °C"),
    ("COc1cc(C=C(C#N)C(N)=O)c([N+](=O)[O-])cc1OC", "265 to 266 °C"),
]

Query: Which melting point reading was recorded for the molecule CCOC(=O)C(Sc1nc2cc(Cl)ccc2s1)c1ccccc1 (stereo not given) ?
Response: 62 to 64 °C

Query: Which melting point reading was recorded for the molecule N#Cc1c(-c2ccc(N)cc2)cc(-c2ccccc2O)nc1NC(=O)c1cccs1 ?
Response: 292 to 293 °C

Query: Which melting point reading was recorded for the molecule Cc1ccccc1C(=O)Oc1cc(O)ccn1 ?
Response: 116 to 119 °C

Query: Which melting point reading was recorded for the molecule COc1ccc(CCc2cc3cc(C#N)ccc3o2)c(CC(=O)OCc2ccccc2)c1 ?
Response: 127 to 128 °C

Query: Which melting point reading was recorded for the molecule CCOC(=O)NC(CCSC)C(N)=O (racemic) ?
Response: 110 to 112 °C

----------
PROPERTY_MEASURED: melting point

Example cases with answers are listed next.
# MOLECULE, PROPERTY_MEASURED, ENDPOINT_VALUE
records = [
    ("NC(c1ccccc1)c1ccc(O)cc1 (stereo not given)", "melting point", "113 to 115 °C"),
    ("CCOC(=O)c1cc(=O)c2cc(C(C)(C)C)cc(C(C)(C)C)c2o1", "melting point", "130 to 132 °C"),
    ("Cc1ccc(-c2c(Cl)nc(-c3cccs3)nc2NS(=O)(=O)c2ccc(C(C)(C)C)cc2)cc1", "melting point", "> 300 °C"),
    ("CC1Cc2c(N3CCCC(O)C3)c(F)cc3c(=O)c(C(=O)O)cn1c23 (stereo not given)", "melting point", "251 to 253 °C"),
    ("O=C(Cc1cccnc1)c1ccc2c(c1)CCC2", "melting point", "55 to 56 °C"),
    ("O=C1CCc2c(Br)cc(F)cc21", "melting point", "129 to 131 °C"),
    ("CCCCCCCc1ccc(C2CC(CCCCCC)C(=O)O2)cc1 (stereo not given)", "melting point", "45.9 to 48 °C"),
    ("CNC1Cc2ccc(C(=O)Cn3cnc4cc(-c5ccc(Cl)cc5)sc4c3=O)cc2C1 (stereo not given)", "melting point", "226 to 229 °C"),
    ("CN(Cc1ccc(OC(=O)Cc2ccccc2Nc2c(Cl)cccc2Cl)cc1)CC(C)(C)SN=O", "melting point", "126 to 130 °C"),
]

From here, focus on the item given below.
Query: Which melting point reading was recorded for the molecule CNC(=O)Nc1nccc(Oc2ccc3c(C(=O)Nc4ccc(F)c(C(F)(F)F)c4)cccc3c2)n1 ?
Response: 233 to 234 °C

----------
PROPERTY_MEASURED: melting point

Example cases with answers are listed next.
# MOLECULE, melting point
data = [
    ("CC1(c2nn(-c3ccc(N)cc3Cl)c(=O)o2)CC1", "195 to 196 °C"),
    ("CCCCOc1c(CNC(=O)OC(C)(C)C)n(CC2CC2)c(=O)c2ccc(C(=O)O)cc12", "197 to 198 °C"),
    ("CCOC(=O)CCc1cc(OCC(=O)O)nn1Cc1ccc(Cl)cc1Cl", "129 to 131 °C"),
    ("Nc1ccc(Cl)cc1C(=O)c1ccc(O)cc1", "170 to 175 °C"),
    ("Cc1cc(-c2cccc(C#N)c2)c(C(=O)NCCN2CCOCC2)c(C)n1", "158 to 161 °C"),
]

Query: Which melting point reading was recorded for the molecule CC(C)(C)n1nc2c(N)nc3ccccc3c2c1CCCNS(C)(=O)=O ?
Response: 223 to 224 °C

Query: Which melting point reading was recorded for the molecule CC1(Br)C(Br)=CC(O)=C(Br)C1Br (stereo unspecified) ?
Response: 195 to 196 °C

Query: Which melting point reading was recorded for the molecule COc1cc(NC(=O)CCCCCN2CCN(CCO)CC2)c2nccc(C)c2c1 ?
Response: 88 to 90 °C

Query: Which melting point reading was recorded for the molecule CCc1ccc(-c2ccc3c(c2)C=C(C(=O)Nc2ccc(CN(C)C4CCOCC4)cc2)CCN3C)cc1CC ?
Response: 127 to 129 °C

Query: Which melting point reading was recorded for the molecule C=CCn1c(Cc2ccccc2)c(CC)c(=O)[nH]c1=O ?
Response: 164 to 165 °C

Query: Which melting point reading was recorded for the molecule COc1cc2c(cc1OC)C(C(CO)CO)NCC2 (stereo unspecified) ?
Response: 140 °C

Query: Which melting point reading was recorded for the molecule CCOC(=O)c1sc(-c2ccc(Cl)cc2Cl)nc1C ?
Response: 100 °C

Query: Which melting point reading was recorded for the molecule Nc1nnc(-c2ccc3occ(-c4ccccc4Cl)c3c2)o1 ?
Response: 220 to 221 °C

Query: Which melting point reading was recorded for the molecule O=C1[C@H]2CCC[C@H]2N(C(=O)CBr)c2ccc(Cl)cc2N1Cc1ccccc1 (relative stereo) ?
Response: 163 to 164 °C

Query: Which melting point reading was recorded for the molecule CNC(=NC#N)Nc1ccc(C2=NNC(=O)CC2C)cc1 (stereo unspecified) ?
Response: 235 °C

Query: Which melting point reading was recorded for the molecule CN(C)C(=O)NCc1ccc(Nc2n[nH]c3ncnc(Nc4cccc(Cl)c4)c23)cc1 ?
Response: 238 to 240 °C

Query: Which melting point reading was recorded for the molecule CCOC(=O)c1c(C)cc(-c2ccc(OC)c(OC)c2)cc1C ?
Response: 91 to 92 °C

Query: Which melting point reading was recorded for the molecule O=C(N[C@H](Cc1ccccc1)C(=O)O)C1CCCC1 ?
Response: 102 to 104 °C

----------
melting point reference

# COMPOUND, ENDPOINT_VALUE
data = [
    ("O=[N+]([O-])c1ccccc1-c1ccc(Br)cc1[N+](=O)[O-]", "145 to 147 °C"),
    ("O=C1c2ccccc2C(=O)c2c1c(Br)n1c2Cc2ccccc2C1", "> 320 °C"),
    ("CCOc1ccc2c(c1)n(C1CCCCC1)c(=O)n2Cc1ccc(-n2cccc2)cc1OC", "115 °C"),
    ("CCCCS(=O)(=O)Nc1ccc(Oc2cc(C)cc3cccnc23)cc1", "189 to 190 °C"),
    ("CCOC(=O)C1CCC(Sc2ccc(F)cc2)C(=O)C1 (stereo not given)", "96 to 97 °C"),
    ("CSCCC(NCc1ccccc1N)C(=O)O (stereo not given)", "198 °C"),
    ("COc1cccc(CNC(=O)c2nc3sc(C(N)=O)c(C)c3c(=O)[nH]2)c1", "258 °C"),
    ("Cc1nc(-c2cccc(CN(C(=O)Nc3ccc(-c4ccccc4S(=O)(=O)NC(C)(C)C)cc3)c3ccccc3)c2)no1", "191 to 192 °C"),
    ("O=c1cnn(-c2cc(Cl)c(Cc3ccc(Cl)cc3)c(Cl)c2)c(=O)[nH]1", "175 to 176 °C"),
    ("CCCCCCCC(O)CNCCCNCC(O)CCCCCCC (stereo not given)", "107 to 109 °C"),
]

Query: Which melting point reading was recorded for the compound Cc1c(SCCCn2c([N+](=O)[O-])cnc2C)ccnc1CSc1ncccn1 ?
Response: 141 to 143 °C

Query: Which melting point reading was recorded for the compound COc1ccc(CSc2ccncc2)c2c1OC(C)(C)C2 ?
Response: 109 to 113 °C

Query: Which melting point reading was recorded for the compound CCn1cc[nH]c(=O)c1=O ?
Response: 173 to 174 °C

Query: Which melting point reading was recorded for the compound Cc1cccc2sc(-n3nc(CCCO)cc3-c3ccc(Cl)cc3)nc12 ?
Response: 112 to 114 °C

Query: Which melting point reading was recorded for the compound CCN(CC)CCN1c2ccccc2N(C)C(=O)c2ccc(C)nc21 ?
Response: 91 to 93 °C

Query: Which melting point reading was recorded for the compound CC(=O)Nc1nc(NC(C)CCc2ccccc2)nc(C(C)(C)F)n1 (stereo not given) ?
Response: 91 °C

Query: Which melting point reading was recorded for the compound FC(F)(F)Oc1ccc2nc(Cc3cn4ccsc4n3)[nH]c2c1 ?
Response: 177 to 179 °C

Query: Which melting point reading was recorded for the compound NS(=O)(=O)c1cccc(-c2cn(-c3nc(-c4ccc(Cl)c(Cl)c4)cc(C(F)(F)F)n3)cn2)c1 ?
Response: 239 °C

Query: Which melting point reading was recorded for the compound COC(=O)c1ccccc1NCc1ccncc1 ?
Response: 86 °C

Query: Which melting point reading was recorded for the compound O=C(CCC(=O)N1CCC(c2ccc(Cl)cc2)CC1)c1ccc2c(c1)CCN(C(=O)C(F)(F)F)CC2 ?
Response: 131 to 132 °C
